Answer each item with its documented emission maximum.
Test: solvent given as SMILES
Details: in ClC(Cl)Cl
Answers are plain numbers, in nm.

Known results for compounds:
>>> endpoint_value("CCCN1c2ccccc2Sc2cc(/C=C\\c3cc(=O)oc4ccccc34)ccc21")
618
>>> endpoint_value("CN(C)CCNc1ccc([N+](=O)[O-])cc1[N+](=O)[O-]")
389
>>> endpoint_value("Cc1ccc(C2=C3C=CC(c4ccccc4)=[N+]3[B-](F)(F)n3c2ccc3-c2ccccc2)cc1")
588
>>> endpoint_value("CN(C)c1ccc(C2=Cc3cccc[n+]3[B-](F)(F)O2)cc1")
490

Ask: Entry under review: "CCCCCCn1c2cc(/C=C/c3cccs3)ccc2c2ccc(/C=C/c3cccs3)cc21" . Reported emission maximum?
Reply: 427.35

====

Assay: solvent given as SMILES
Conditions: in c1ccccc1
Recorded Endpoint: emission maximum
Kindly write the number and append the unit.

>>> endpoint_value("CC1(C)CC(/C=C/c2ccc(-n3c4ccccc4c4ccccc43)cc2)=CC(=C(C#N)C#N)C1")
"534 nm"
>>> endpoint_value("CN(C)c1ccc2ccc3oc(=O)c(-c4ccccc4)nc3c2c1")
"608 nm"
>>> endpoint_value("Cc1ccc(-c2c3ccc([nH]3)c3nc(c(-c4ccc(C#N)cc4)c4ccc([nH]4)c4ccc([nH]4)c(-c4ccc(C)cc4)c4ccc2o4)C=C3)cc1")
"722 nm"
>>> endpoint_value("CNc1ccc2c(c1)C(=O)c1ccccc1-2")
"635 nm"
>>> endpoint_value("CN(CCO)c1ccc(/C=C/C2=CC(=C(C#N)C#N)CC(C)(C)C2)cc1")
"588 nm"
>>> endpoint_value("COc1cc(/C=C/C(=O)CC(=O)/C=C/c2ccc(O)c(OC)c2)ccc1O")
"464 nm"
>>> endpoint_value("CN(C)C(=O)c1ccc(-c2nc3ccc(N(C)C)cc3s2)cc1")
"457 nm"
>>> endpoint_value("COc1cccc(-n2c(-c3ccc(F)cc3)nc(C)c2C)c1")
"365 nm"
>>> endpoint_value("CC(C)[Si]1(C(C)C)c2cc(C=C(C#N)C#N)ccc2-c2ccc(N(C)C)cc21")
"566 nm"
>>> endpoint_value("c1csc(-c2cnc(-c3cccs3)c3nonc23)c1")
"601 nm"

Return reported emission maximum values for all items listed beneath this line.
1. CN(C)c1ccc(/C=C2\CC/C(=C\c3ccc(C#N)cc3)C2=O)cc1
2. CCCCN(CCCC)c1ccc(C#Cc2cc(C#Cc3ccc(C(F)(F)F)cc3)c(C#Cc3ccc(N(CCCC)CCCC)cc3)cc2C#Cc2ccc(C(F)(F)F)cc2)cc1
3. CC1(C)Oc2c(c3nc4ccccc4nc3c3ccccc23)CC1Br (centres undefined)
4. CC(C)(C)c1ccc2oc(-c3ccc(-c4nc5cc(C(C)(C)C)ccc5o4)s3)nc2c1

Reply:
569 nm
506 nm
444.25 nm
434 nm

Record emission maximum for all entries; do not skip any.
1. COc1cc(-c2cc(-c3ccc(C)cc3)nc3c(C#N)c(N4CCCC4)nc(N)c23)cc(OC)c1OC
2. Cc1ccc(C(=O)/C=C/c2ccc(N(C)C)cc2)cc1

Reply:
1: 508 nm; 2: 473 nm

====

Assay: solvent given as SMILES
Details: in CC(C)=O
Binarize emission maximum at 500 nm; below is YES, at or above is NO.

Use these answered entries as a reference point.
>>> label("C[n+]1ccc(/C=C/c2ccc([O-])cc2)cc1")
"NO"
>>> label("CCc1ccc(/C=C/c2ccc(-c3nnc(-c4ccc(-c5cc6ccccc6s5)cc4)o3)cc2)cc1")
"YES"
>>> label("c1ccc(-c2nn(-c3ccccc3)c3nc4ccccc4cc23)cc1")
"YES"

Ask: # check: emission maximum < 500 nm for "CCCCN1c2ccccc2Sc2cc(/C=C/c3nc4nc5ccccc5nc4s3)ccc21"
Reply: NO

Ask: Identify whether the compound "COc1ccc(/C=C/C2=[O+][B-](F)(F)OC(/C=C/c3ccc(OC)cc3)=C2c2ccccc2)cc1" records emission maximum below 500 nm.
Reply: NO

Ask: Quick check: emission maximum of "CCCCN1c2ccccc2Sc2cc(/C=C/C3=Nc4ccc5ccccc5c4C3(C)C)ccc21" under 500 nm?
Reply: NO

Ask: Please state whether emission maximum is below 500 nm for "Cc1cc(C)c(B(c2ccc(-c3nc4c5ccccc5c5ccccc5c4[nH]3)cc2)c2c(C)cc(C)cc2C)c(C)c1"
Reply: YES

Ask: For "CN(C)c1ccc(C#Cc2ccccc2)cc1" , is the recorded emission maximum below the cut-off of 500 nm?
Reply: YES

Ask: Dear colleague, could you confirm whether emission maximum of "CC1=C(C(C)(C)C)C(C)=[N+]2C1=C(C)c1c(C)c(C(C)(C)C)c(C)n1[B-]2(F)F" falls below 500 nm? Thanks.
Reply: NO

Ask: Is emission maximum of "O=C(N/N=C/c1ccccc1O)c1cccc2ccccc12" strictly below 500 nm?
Reply: YES
